# measuredOn: T1, NativeRPtag(large)_with_Tags_and_Cys (Thermoanaerobacter tengcongensis)
# T1 chain: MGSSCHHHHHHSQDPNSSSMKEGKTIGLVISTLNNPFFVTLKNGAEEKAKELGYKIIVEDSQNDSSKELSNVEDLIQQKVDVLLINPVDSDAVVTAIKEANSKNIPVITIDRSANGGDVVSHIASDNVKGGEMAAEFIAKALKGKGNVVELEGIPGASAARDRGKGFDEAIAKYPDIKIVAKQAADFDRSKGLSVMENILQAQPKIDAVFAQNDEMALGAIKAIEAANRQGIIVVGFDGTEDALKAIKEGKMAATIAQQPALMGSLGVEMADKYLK
# protocolSummary: fluorescence anisotropy; TritonX-100 (2%)
measuredEndpoint: Kd
Answer shape: numeric part, then the unit.

Input PAELKLITK (modifications not checked) [RPtag(small) Nd8, Cd4] , output reported Kd. 180 nM
